Test system: HL-60(TB) leukemia
assay_info: NCI-60 one-dose screen, 48 h
assay_conditions: 10 µM unless noted
Compounds without any hit were thinned out: in the full panel of roughly 83,000, 20% have a hit. The source made the active and inactive calls. How the source made its calls: active means growth percent below 10; inactive means the rest.
Outcomes: T for active, F for inactive

• COc1ccc(-c2nc3ccc(-c4nnc(SCc5ccccc5)o4)cc3[nH]2)cc1 = F
• CCCCCCCCCCCCCCCCCCCC(=O)NCCc1c[nH]c2ccc(OC(=O)NOCCOCCOCCOCCOCCOCCOCCOCCOCCOCCOCCOCCOCCOCCOCCOCCOCCOCCOCCOCCOCCOCCOC)cc12 = T
• Fc1ccc(N2CC(Cn3c(C(F)(F)F)cc4c(Cl)ncnc43)C2)c(F)c1 = T
• Cn1cc(-c2cc(N)n3nc(-c4cn(C)c5ccc(Cl)cc45)cc3n2)c2ccccc21 = F
• CN(C)c1nc(NCCNS(=O)(=O)c2ccc(C3=Nc4c(N)nc(N)nc4NC(c4ccc(C(F)(F)F)cc4)C3)cc2)nc(Nc2ccc(F)cc2)n1 (configuration not stated) = T
• COC(=O)C[C@](O)(CCC(C)C)C(=O)O[C@H]1C(OC)=C[C@@]23CCCN2CCc2cc4c(cc2[C@@H]13)OCO4 = T
• Cc1nc2sccn2c1-c1nnc(SCC(C)C)o1 = F
• Cc1cccc2cc(-c3cc(-c4ccccc4)nc(=O)[nH]3)c(Cl)nc12 = F
• O=C(CSc1nnc(-c2c[nH]c3ccccc23)n1-c1ccccc1)Nc1ccc(C(=O)/C=C/c2ccccc2Cl)cc1 = F
• Cc1sc2c(c1C)C(c1ccc(Cl)cc1)=N[C@@H](CC(=O)NCCCCCNC(=O)COc1ccc(C3CCC(=O)NC3=O)cc1)c1nnc(C)n1-2 (some centres not stated) = T
• COc1ccc(CN2[C@@H](C(=O)NCc3ccc(C(=O)NO)cc3)Cc3c([nH]c4ccccc34)[C@@H]2C)cc1 = T
• CC1(C)CC[C@]2(C(=O)O)CC[C@]3(C)C(=CCC4[C@@]5(C)C[C@@H](O)[C@@H]6OC(c7cccc(Br)c7)OC[C@@]6(C)C5CC[C@]43C)C2C1 (some centres not stated) = T
• O=c1c2ccccc2nc(COc2ccccc2)n1/N=C/c1ccc(F)cc1 = F
• CCC1(OC(=O)c2ccccc2SSCCOC(=O)CCCCC2SCC3NC(=O)NC32)C(=O)OCc2c1cc1n(c2=O)Cc2cc3ccccc3nc2-1 (configuration not stated) = F
• N/C(=N\c1nc2ccccc2s1)NC(=O)Nc1ccccc1F = T
• COc1cccc(/C=N/NC(=O)c2ccc3nc(-c4ccc(Cl)cc4)[nH]c3c2)c1O = T
• COc1ccc2cc([C@H](C)C(=O)N/N=C/c3ccc(Br)cc3)ccc2c1 = F

* * *

Test system: OVCAR-8 ovarian
assay_info: NCI-60 one-dose screen, 48 h (100 = growth as untreated, 0 = no growth, -100 = all killed)
assay_conditions: 10 µM
The panel holds about 83,000 compounds, 20% with a hit somewhere; the sample as a whole holds those more often.
Quick rule: growth of at least -20% means Yes, below that means No.

* C=CCN=C([Se])NC(=O)c1ccc2c(c1)OCO2 | Yes
* COC(=O)CCn1c(-c2ccc(-n3cc(-c4ccc(O[C@H]5O[C@@H]6OC7(C)CC[C@H]8[C@H](C)CC[C@@H]([C@H]5C)[C@@]68OO7)cc4)nn3)cc2)nc2ccccc21 | Yes
* CC1=C(CCC=O)C2=C(C)C3(CC3)[C@@](C)(O)C(=O)C2=C1 | No
* O=C(/C=C/c1ccc(Br)cc1)c1nc2ccccc2n1Cc1ccc(Br)cc1 | Yes
* CC(C)N=C([Se])NC(=O)c1cccs1 | No

* * *

System: M14 melanoma
assay_info: NCI-60 one-dose screen, 48 h
assay_conditions: 10 µM
Description: Growth inhibition of the M14 human tumor cell line is measured as a screen for anti-cancer activity. Cells are grown in 96 well plates and exposed to the test compound for 48 hours. Compounds are tested at a single concentration, which is 10^-5 M for most compounds. The reported endpoint is percent growth (GI% or GIPRCNT), where numbers from 0 - 100% represent growth inhibition, and numbers from -100% - 0 represent cell death. For example, a value of 40 represents 60% growth inhibition. […]
About 83,000 compounds went through this panel and 20% of them were active in at least one assay; those are over-represented in the sample as a whole. The source made the active and inactive calls. The calls were made as follows: active = growth percent below 10; inactive = the rest.
Outcome codes: true (1) for active, false (0) for inactive

- C=CCN=C([Se])NC(=O)c1ccc2c(c1)OCO2: false (0)
- COc1cc(OC)c(S(=O)(=O)N(CCCl)CCCl)cc1C(=O)/C=C/c1cc(OC)c(OC)c(OC)c1: true (1)
- CC(=O)Oc1ccccc1C(=O)NC([Se])=NC1CCCCC1: false (0)
- COCCOCCOCCOc1ccc(-n2cc(-c3ccc(O[C@H]4O[C@@H]5OC6(C)CC[C@H]7[C@H](C)CC[C@@H]([C@H]4C)[C@@]57OO6)cc3)nn2)cc1: false (0)
- O=C(/C=C/c1cccc(Br)c1)c1nc2ccccc2n1Cc1ccc(F)cc1: false (0)
- C[C@H]1[C@@H](Oc2ccc(-c3cn(-c4ccnc5cc(Cl)ccc45)nn3)cc2)O[C@@H]2OC3(C)CC[C@H]4[C@H](C)CC[C@@H]1[C@@]24OO3: false (0)
- COP(=O)(CC(F)(F)C(F)(F)F)OC: true (1)
- COc1cc2cc(C(=O)N3C[C@@H](CCl)c4c3cc(OC(=O)N3CCN(C(=O)CCC(=O)N5CCN(C)CC5)[C@@H]5CSSC[C@@H]53)c3ccccc43)[nH]c2c(OC)c1OC: true (1)
- C[C@H]1[C@H](OC(=O)CCC(=O)Nc2cnccn2)O[C@@H]2OC3(C)CC[C@H]4[C@H](C)CC[C@@H]1[C@@]24OO3: false (0)
- CC12OOC(C)(OO1)C2CCC(=O)NCCCNc1ccnc2cc(Cl)ccc12 (centres undefined): false (0)
- Cc1ccc2[nH]c(=S)n(-c3ccc(F)cc3)c(=O)c2c1: false (0)
- COc1ccc(/C=C/C(=O)c2nc3ccccc3n2Cc2ccc(Br)cc2)cc1: false (0)
- C#CC[Se]C(=O)c1ccc2n[se]nc2c1: false (0)
- O=C(NC([Se])=NC1CCCCC1)c1ccccc1: false (0)
- O=C(/C=C/c1ccc(Cl)cc1Cl)c1nc2ccccc2n1Cc1ccc(F)cc1: false (0)
- O=C(/C=C/c1ccc(F)cc1)c1nc2ccccc2n1Cc1ccc(Br)cc1: true (1)
- CC12OOC(C)(OO1)C2CCC(=O)NCCNc1ccnc2cc(Cl)ccc12 (centres undefined): false (0)
- O=C(/C=C/c1ccccc1Cl)c1nc2ccccc2n1Cc1ccc(F)cc1: true (1)
- CCOC(=O)C1=C(Nc2ccccc2)C(=O)OC12C(=O)Nc1ccccc12 (centres undefined): false (0)
- CC[C@]12C=CCN3CC[C@@]4(c5ccc(OC)cc5N(C)[C@H]4[C@@](O)(C(=O)OC)[C@@H]1OC(=O)CCC[P+](C1CCCCC1)(C1CCCCC1)C1CCCCC1)[C@@H]32: true (1)
- CC[C@]12C=CCN3CC[C@@]4(c5ccc(OC)cc5N(C)[C@H]4[C@@](O)(C(=O)OC)[C@@H]1OC(=O)CCC[P+](c1ccc(C)cc1)(c1ccc(C)cc1)c1ccc(C)cc1)[C@@H]32: true (1)
- COC(=O)C[C@](O)(CCCC(C)C)C(=O)O[C@H]1C(OC)=C[C@@]23CCCN2CCc2cc4c(cc2[C@@H]13)OCO4: true (1)
- COc1ccc(OC)c(/C=C/C(=O)c2nc3ccccc3n2Cc2ccc(F)cc2)c1: true (1)
- CC1=C2C(=C[C@@](C)(COP(=O)(Oc3ccccc3)Oc3ccccc3)[C@@H]2O)C(=O)[C@@](C)(O)C12CC2: true (1)

* * *

Test system: SN12C renal
assay_info: NCI-60 one-dose screen, 48 h (100 = growth as untreated, 0 = no growth, -100 = all killed)
assay_conditions: 10 µM
Experimental: Growth inhibition of the SN12C human tumor cell line is measured as a screen for anti-cancer activity. Cells are grown in 96 well plates and exposed to the test compound for 48 hours. Compounds are tested at a single concentration, which is 10^-5 M for most compounds. The reported endpoint is percent growth (GI% or GIPRCNT), where numbers from 0 - 100% represent growth inhibition, and numbers from -100% - 0 represent cell death. For example, a value of 40 represents 60% growth inhibition. […]
The panel holds about 83,000 compounds, 20% with a hit somewhere; the sample as a whole holds those more often.
property_measured: growth (%)

- CC(C)N=C([Se])NC(=O)c1ccccc1: -59.8
- N#C[Se]CC(=O)Nc1cccc(C(F)(F)F)c1: -78.1
- O=C(/C=C/c1ccccc1Cl)c1nc2ccccc2n1Cc1ccc(F)cc1: -89.4
- COc1ccc(OC)c(/C=C/C(=O)c2nc3ccccc3n2Cc2ccc(F)cc2)c1: 4.76
- O=C(/C=C/c1ccco1)c1nc2ccccc2n1Cc1ccc(Br)cc1: 43.4
- O=C(/C=C/c1ccc(F)cc1)c1nc2ccccc2n1Cc1ccc(F)cc1: 21.9
- CC12OOC(C)(OO1)C2CCC(=O)NCCCNc1ccnc2cc(Cl)ccc12 (configuration not stated): 91.9
